// values below are reported LD25
Tested on: TAMH cells
Test: MTT cell viability assay, TAMH cells
Type: cell-based, mouse
Details: TAMH cells; MTT; 48 h exposure
parameter: LD25 (µM)

[[record]]
molecule = "Nc1nc(SCc2ccc(F)cc2)ccc1NC(=O)c1ccc(F)c(F)c1"
modifier = "="
readout_value = 13

[[record]]
molecule = "CCOC(=O)Nc1ccc(SCc2ccc(-c3ccccc3)cc2)nc1N"
modifier = "="
readout_value = 14

[[record]]
molecule = "CCOC(=O)Nc1ccc(SCc2ccc(F)cc2)nc1C"
modifier = ">"
readout_value = 10

[[record]]
molecule = "CCOC(=O)Nc1ccc(NCc2ccc(F)cc2)nc1N [Compound 1, Flupirtine, reference compound]"
modifier = "="
readout_value = 103

